Target under test: Purified pig DAAO (Sus scrofa, UniProt P00371)
Sequence (P00371 whole entry): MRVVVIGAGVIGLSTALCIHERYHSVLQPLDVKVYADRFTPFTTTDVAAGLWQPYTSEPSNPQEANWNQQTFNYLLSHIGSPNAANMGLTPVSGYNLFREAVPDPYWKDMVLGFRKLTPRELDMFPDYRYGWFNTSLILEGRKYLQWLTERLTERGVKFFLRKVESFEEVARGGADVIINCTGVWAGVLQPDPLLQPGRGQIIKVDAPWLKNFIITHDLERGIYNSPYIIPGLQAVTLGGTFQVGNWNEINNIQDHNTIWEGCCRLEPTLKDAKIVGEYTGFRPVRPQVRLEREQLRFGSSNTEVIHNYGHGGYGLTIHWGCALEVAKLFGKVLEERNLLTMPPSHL
pIC50: −log10 of the molar value.
The following compounds are listed with their measured pIC50 values.

Observe how each entry below is paired with its result.
Please provide the recorded pIC50 for O=C(O)c1ccc[nH]1 , tested on Purified pig DAAO (Sus scrofa, UniProt P00371).
> 5.00

# returns recorded pIC50 (system: Purified pig DAAO (Sus scrofa, UniProt P00371)) for CC1CCc2[nH]nc(C(=O)O)c2C1 (centres unmarked)
> 5.00

What value of pIC50 on Purified pig DAAO (Sus scrofa, UniProt P00371) does C[C@@H](Cc1cc(C(=O)O)n[nH]1)c1ccccc1 have?
> 5.00

New cases:
Any idea what pIC50 came out for Cc1cc(C(=O)O)no1 on Purified pig DAAO (Sus scrofa, UniProt P00371)?
> 4.00

// fetch Purified pig DAAO (Sus scrofa, UniProt P00371) pIC50 for CC(C)C1CCc2[nH]nc(C(=O)O)c2C1 (centres unmarked)
> 4.00
